System: Yap1 mRNA
RUN_DESCRIPTION: Antisense inhibition of human Yap1 in SNU-449 cells by modified oligonucleotides, single dose (Example 5, RTS36584)
Assay type: cell-based
DETAILS: Table 45; Yap1 mRNA as percent of untreated control, SNU-449 cells, single dose
Strand notation (5' to 3'): a small letter for the sugar, then the base; units joined by * are phosphorothioate-linked, units joined directly phosphodiester-linked; [ ] holds rarer units or linkages, { } end groups; capitals alone tell only the bases. k = constrained ethyl (cEt); [5mC] = 5-methylcytosine; d = 2'-deoxy (DNA)

{"SUBSTANCE": "1198937 (k[5mC]*kA*dG*dA*dT*dT*dT*dA*dG*dG*dA*kT*dG*k[5mC]*dA*kT; antisense) [Compound 1198937]", "YAP1 (% UTC)": "48 % UTC"}
{"SUBSTANCE": "1198947 (k[5mC]*kA*dA*d[5mC]*dT*d[5mC]*dT*dT*dA*dT*dA*kT*dG*kG*dT*kT; antisense) [Compound 1198947]", "YAP1 (% UTC)": "88 % UTC"}
{"SUBSTANCE": "1198934 (kA*kT*dT*dT*dA*dG*dG*dA*dT*dG*d[5mC]*kA*dT*kG*dG*kT; antisense) [Compound 1198934]", "YAP1 (% UTC)": "56 % UTC"}
